Reported melting point values are given for each entry in this list.

melting point for O=S(=O)(c1cccc(Cl)c1)c1cn(C2CCCNC2)c2ccccc12 (centres unmarked) is > 150 °C (dec.)

Record COc1ccc2c(c1)c(S(=O)(=O)c1cccc(F)c1)cn2C1CCCNC1 (centres unmarked) , field melting point: 267 to 270 °C

The compound listed as CN1CCCC(n2cc(S(=O)(=O)c3cccc(F)c3)c3cc(Cl)ccc32)C1 (centres unmarked) shows melting point equal to 242 to 245 °C

According to the records, this compound O=S(=O)(c1ccccc1)c1cn(C2CCNCC2)c2ccccc12 displays melting point of 294 to 297 °C

Measured melting point of COc1ccc2c(c1)c(S(=O)(=O)c1cccc(F)c1)cn2C1CCCN(C)C1 (centres unmarked) : 262 to 265 °C

Further cases:
# compound O=S(=O)(c1cn(C2CCCNC2)c2ccccc12)c1cccc2cccnc12 (centres unmarked) ; its melting point = > 195 °C (dec.)

GET /value?item= O=S(=O)(c1ccccc1)c1cn(C2CCN(Cc3ccccc3)CC2)c2ccccc12 &field=melting point returns 288 to 291 °C

According to the records, this compound O=S(=O)(c1cccc2ccccc12)c1cn(C2CCCNC2)c2ccccc12 (centres unmarked) displays melting point of > 180 °C (dec.)

###

# key: entry, value: log10(Ki)
Molecular target: human cloned 5-HT6 receptors (Homo sapiens, UniProt P50406)
Construct: expressed in transfected cells; host or cells: HeLa cells
Sequence (P50406 whole entry): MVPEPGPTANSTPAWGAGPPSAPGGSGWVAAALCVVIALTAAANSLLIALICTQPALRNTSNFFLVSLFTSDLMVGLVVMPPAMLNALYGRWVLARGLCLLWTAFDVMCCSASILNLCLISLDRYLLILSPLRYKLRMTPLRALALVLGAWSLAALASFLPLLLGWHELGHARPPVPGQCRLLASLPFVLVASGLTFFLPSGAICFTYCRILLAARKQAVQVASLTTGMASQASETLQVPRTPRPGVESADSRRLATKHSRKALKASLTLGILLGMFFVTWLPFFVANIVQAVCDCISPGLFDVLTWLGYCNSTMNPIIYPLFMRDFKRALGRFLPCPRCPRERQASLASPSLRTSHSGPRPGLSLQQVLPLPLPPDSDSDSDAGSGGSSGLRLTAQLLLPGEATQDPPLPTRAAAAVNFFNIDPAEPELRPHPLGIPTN
Assay: 5-HT6 binding affinity ([3H]-LSD displacement, membranes of Hela cells)
Conditions: [3H]-LSD 3.0 nM, Hela cell membranes expressing human cloned 5-HT6 receptors, 120 min at room temperature; read-out: 5-HT6 Binding Ki
Where a name gives a salt, the structure may show the parent alone.
Plainly stated, the numbers are log10 of Ki given in µM.

Consider the worked cases shown below.
Item: O=S(=O)(c1ccccc1)c1cn(C2CCCNC2)c2ccccc12 (stereo not drawn) [Example 9, Hydrochloride] | System: human cloned 5-HT6 receptors (Homo sapiens, UniProt P50406) | log10(Ki): -1.89

Form field, log10(Ki) with human cloned 5-HT6 receptors (Homo sapiens, UniProt P50406), item O=S(=O)(c1ccccc1)c1cn(C2CCNCC2)c2ccccc12 : -1.04

Note to self: log10(Ki) of O=S(=O)(c1ccccc1)c1cn(C2CCCN(Cc3ccccc3)C2)c2ccccc12 (stereo not drawn) with human cloned 5-HT6 receptors (Homo sapiens, UniProt P50406) was -0.91

Attention now turns to another entry.
Assay human cloned 5-HT6 receptors (Homo sapiens, UniProt P50406), sample O=S(=O)(c1ccccc1)c1cn(CC2CCNCC2)c2ccccc12 [Example 4, Hydrochloride] , log10(Ki) read: -1.57

###

Molecular target: human cloned 5-HT6 receptors (Homo sapiens)
Construct: expressed in transfected cells; host or cells: HeLa cells
Test: 5-HT6 binding affinity ([3H]-LSD displacement, membranes of Hela cells)
recorded metric: pKi
Would you please state pKi, meaning minus log10 of the concentration in mol/L, as a bare number?

Recorded result, O=S(=O)(c1ccccc1)c1cn(C2CCN(Cc3ccccc3)CC2)c2ccccc12 [Example 12] , pKi: 7.31

###

Target: human cloned 5-HT6 receptors (Homo sapiens, UniProt P50406)
Construct: expressed in transfected cells; host or cells: HeLa cells
Assay: 5-HT6 binding affinity ([3H]-LSD displacement, membranes of Hela cells)
Conditions: [3H]-LSD 3.0 nM, Hela cell membranes expressing human cloned 5-HT6 receptors, 120 min at room temperature; read-out: 5-HT6 Binding Ki
Measured pKi of individual entries
Please report pKi as the negative decimal logarithm of the molar concentration, giving only the number.

The reported pKi of the molecule O=S(=O)(c1cccc(F)c1)c1cn(C2CCCNC2)c2ccc(F)cc12 (centres unmarked) was 8.40

Recorded pKi (molecule O=S(=O)(c1cn(C2CCCNC2)c2ccccc12)c1cccc2cccnc12 (centres unmarked) ): 8.22

Measured pKi of CN1CCCC(n2cc(S(=O)(=O)c3cccc(F)c3)c3cc(Cl)ccc32)C1 (centres unmarked) : 7.21

Reported pKi ( O=S(=O)(c1cccc(F)c1)c1cn(C2CCCNC2)c2ccc(Cl)cc12 (centres unmarked) ) = 7.54

Shifting focus to the molecule that follows.
Record O=S(=O)(c1cccc2ccccc12)c1cn(C2CCCNC2)c2ccccc12 (centres unmarked) , field pKi: 7.68
